B1: KRT13 (parent)
chain: TPGIDLTRVLAEMREQYEAMAERN

Variants of: B1
methodSummary: protein stability index of a GFP-peptide fusion (GPS, HEK-293T) (PSI 1-6); higher = more stable;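 note: lentivirally expressed fusions sorted by FACS into six bins by GFP to DsRed ratio, PSI derived from sequencing read proportions per bin multiplied by bin number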
testContext: c terminus: a fixed tail appended
protein stability index values for the variants below.
experimentalEndpoint: protein stability index

    sequencevariant     experimentalendpoint  numericreadout
 0             R23A  protein stability index             3.9
 1              T7K  protein stability index            2.88
 2             R14C  protein stability index            3.04
 3              G3Y  protein stability index            2.34
 4              D5T  protein stability index            3.68
 5              V9C  protein stability index            4.47
 6              D5H  protein stability index            4.29
 7              D5V  protein stability index            2.63
 8             Q16H  protein stability index            3.31
 9             E12R  protein stability index            1.05
10             E12P  protein stability index            4.36
